FYI, the data here is from patent US11485713B2.

Entries and their microsomal CLint at 1 μM
ASSAY NAME: Microsomal stability assay, HLM
Type: in vitro ADME
EXPERIMENTAL SETUP: human, pH 7.4, 1 μM test compound, 0.5 mg/mL liver microsomes protein, 37° C., 0-60 min, read-out: HLM +/− NADPH: Clint (μL/min/mg protein)

Please look up its microsomal CLint at 1 μM: `CC(C)(c1ccc(OCC(=O)CNS(C)(=O)=O)c(F)c1)c1cc(Cl)c(OCCCCl)c(Cl)c1`
≥ 48 µL/min/mg

Try this compound too: `CC(C)(c1ccc(OCCCCl)cc1)c1ccc(OCC(=O)CNS(C)(=O)=O)c(Cl)c1`
≥ 48 µL/min/mg

Try this compound too: `CC(C)(c1ccc(OCC(=O)NNS(C)(=O)=O)cc1)c1cc(Cl)c(OCCCCl)c(Cl)c1`
12 to 48 µL/min/mg

Try this compound too: `CC(C)(c1ccc(OCC(=O)CNS(C)(=O)=O)cc1)c1cc(Cl)c(CCCCCl)c(Cl)c1`
≥ 48 µL/min/mg

Try this compound too: `CS(=O)(=O)NCC(=O)COc1ccc(C2(c3cc(Cl)c(OCCCCl)c(Cl)c3)COC2)cc1`
≥ 48 µL/min/mg

Try this compound too: CC(CCl)COc1c(Cl)cc(C(C)(C)c2ccc(OCC(=O)CNS(C)(=O)=O)cc2)cc1Cl (centres unmarked)
≥ 48 µL/min/mg

Try this compound too: COCC(=O)COc1ccc(Cc2cc(Cl)c(OCC(O)CCl)c(Cl)c2)cc1 (centres unmarked)
≥ 48 µL/min/mg

Try this compound too: `CC(C)(c1ccc(OCC(=O)C(F)(F)F)cc1)c1cc(Cl)c(OCCCCl)c(Cl)c1`
< 12 µL/min/mg

Try this compound too: COCC(=O)COc1ccc(C(C)(C)c2cc(Cl)c(OCC(C)(O)CCl)c(Cl)c2)cc1 (centres unmarked)
≥ 48 µL/min/mg

Try this compound too: `CC(C)(c1ccc(OC(F)(F)C(=O)CCNS(C)(=O)=O)cc1)c1cc(Cl)c(OCCCCl)c(Cl)c1`
≥ 48 µL/min/mg

Try this compound too: `CC(=O)NCC(=O)COc1ccc(C(C)(C)c2cc(Cl)c(OCCCCl)c(Cl)c2)cc1`
≥ 48 µL/min/mg

Try this compound too: `CC(C)(c1ccc(C(=O)CCCNS(C)(=O)=O)cc1)c1cc(Cl)c(OCCCCl)c(Cl)c1`
12 to 48 µL/min/mg
